system: RARg homodimer (NR concentration 270 nM); assay: PBM binding z-score (relative to random genomic background probes); higher = stronger binding; sequences stand for … in GC…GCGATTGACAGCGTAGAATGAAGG
I'd appreciate it if you could supply PBM binding z-score values for the items below.
Give bare numbers.

Solved entries (count: 3):
> print(dat)
                     ordered.residues                                       tgt  value.reported
1  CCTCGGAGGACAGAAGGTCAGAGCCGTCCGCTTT  RARg homodimer (NR concentration 270 nM)             3.1
2  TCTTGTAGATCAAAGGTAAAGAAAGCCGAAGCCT  RARg homodimer (NR concentration 270 nM)          -0.165
3  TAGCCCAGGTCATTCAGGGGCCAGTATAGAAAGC  RARg homodimer (NR concentration 270 nM)            4.29

Provide reported PBM binding z-score for each item, in the same order as listed.
1. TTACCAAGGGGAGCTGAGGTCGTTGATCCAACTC
2. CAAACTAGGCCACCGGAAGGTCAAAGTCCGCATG
3. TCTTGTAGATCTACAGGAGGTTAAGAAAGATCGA

-0.439
4.07
0.133

Provide reported PBM binding z-score for each item, in the same order as listed.
1. TCTTATAGATCAAAGGTTAAGAAAGCCGAAGCCT
2. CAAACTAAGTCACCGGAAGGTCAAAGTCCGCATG
3. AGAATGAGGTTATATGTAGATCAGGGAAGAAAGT
4. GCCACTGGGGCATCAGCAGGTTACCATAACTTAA
5. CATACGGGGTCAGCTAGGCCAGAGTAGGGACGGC
6. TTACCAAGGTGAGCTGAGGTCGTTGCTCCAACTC
7. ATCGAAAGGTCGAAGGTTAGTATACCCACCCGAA

1: 1.15; 2: 3; 3: 1.09; 4: 0.439; 5: 6.46; 6: 0.763; 7: 3.94

Provide reported PBM binding z-score for each item, in the same order as listed.
1. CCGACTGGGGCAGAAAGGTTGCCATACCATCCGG
2. TCAAGTTGGTCACGGAGGTCACACACGACGGGTA
3. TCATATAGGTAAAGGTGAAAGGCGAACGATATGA

[0.175, 4.56, 1.39]

----------
tested on: RARb homodimer (NR concentration 270 nM); test: PBM binding z-score (relative to random genomic background probes); higher = stronger binding; sequences stand for … in GC…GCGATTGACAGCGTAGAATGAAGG
Decide by PBM binding z-score: equal to or exceeding 2 means label 1, less means label 0.

// known answers, use as guide
> print(dat)
                     ordered.residues                                       tgt  category.label
1  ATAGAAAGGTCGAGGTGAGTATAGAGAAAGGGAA  RARb homodimer (NR concentration 270 nM)         label 1
2  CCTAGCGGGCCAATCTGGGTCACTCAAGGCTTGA  RARb homodimer (NR concentration 270 nM)         label 1
3  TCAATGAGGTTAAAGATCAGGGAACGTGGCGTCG  RARb homodimer (NR concentration 270 nM)         label 0
4  CCGTACGGGTCACGAGGTTATAGCACGACGAGCG  RARb homodimer (NR concentration 270 nM)         label 1

# check: PBM binding z-score of `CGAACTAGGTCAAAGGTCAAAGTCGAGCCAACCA` is greater than or equal to 2
label 1
